System: Aspergillus niger IFO 6341
assay-info: MIC against fungi on potato dextrose agar (Working Example 2)
Format: cell-based
recorded-conditions: weight ratio 0:1 (second component alone); 7 days at 28° C.
measured-quantity: Minimum inhibitory concentration (ppm) against Aspergillus niger
Give bare numbers, in ppm.

Example results:
Q: Param item = [Cu+2].[O-][n+]1ccccc1[S-].[O-][n+]1ccccc1[S-] [d, Copper 2-pyridine thiol-1-oxide] ; retrieve measured Minimum inhibitory concentration (ppm) against Aspergillus niger.
Result: 400

Q: Try this compound next: [Na+].[O-][n+]1ccccc1[S-] [e, 2-pyridine thiol-1-oxide sodium salt]
Result: 400

Q: Try this compound next: [O-][n+]1ccccc1SSc1cccc[n+]1[O-] [f, 2,2-dithio-bis(pyridine-1-oxide)]
Result: 10

Continue with the compound presented below.
Q: Param item = [O-][n+]1ccccc1[S-].[O-][n+]1ccccc1[S-].[Zn+2] [c, Zinc 2-pyridine thiol-1-oxide] ; retrieve measured Minimum inhibitory concentration (ppm) against Aspergillus niger.
Result: 10
